system: PC-3 cell line; test: MTT cytotoxicity assay, PC-3 cells; type: cell-based, human; settings: 48 h incubation, prostate cancer cells, read-out: Half maximal inhibitory concentration (IC50) PC-3
Measured attribute: IC50

>>> endpoint_value("N.N.[Cl][Pt][Cl] [Cisplatin, cis-dichlorodiammine platinum(II)]")
"3000 nM"
